Hello, the source for this data is patent US10010534B2, in case you need it.

protocolSummary: Processed sample (on-instrument or auto-sampler) stability
Type: physicochemical
reportedConditions: rat, processed plasma sample (methanol extract), plasma extracted with methanol containing IS, 2 h; read-out: Mean Recovery ± SD, auto-sampler stability, With IS
endpoint: recovery at 2 h (%)
The reply should contain only the number, in %.

Recorded recovery at 2 h (molecule COc1ccc(/C=N/NC(=O)CSc2nc3ccccc3[nH]2)cc1 [GMC1] ): 89.9

----------
protocolSummary: Freeze-thaw cycle stability of GMC1 plasma and urine samples
Assay type: physicochemical, rat
reportedConditions: rat plasma, 10 ng/mL, three cycles −80° C./room temperature; read-out: Mean Recovery ± SD, freeze-thaw cycle stability
endpoint: recovery at 10 ng/mL

Recorded recovery at 10 ng/mL (molecule COc1ccc(/C=N/NC(=O)CSc2nc3ccccc3[nH]2)cc1 ): 106%

----------
protocolSummary: Solubility of GMC1 in selected solvents by the shaker method
Assay type: physicochemical
reportedConditions: ethanol, organic solvent or mixture, thermodynamic from solid, Ethanol, room temperature, read-out: Mean Solubility ± SD
endpoint: solubility at 72 h (µg/mL)
The reply should contain only the number, in µg/mL.

Recorded solubility at 72 h (molecule COc1ccc(/C=N/NC(=O)CSc2nc3ccccc3[nH]2)cc1 [GMC1] ): 6300

----------
protocolSummary: Pharmacokinetic study of the GMC1 co-solvent formulation, IV bolus
Format: in vivo, male Sprague Dawley rats
reportedConditions: male, Sprague Dawley, rat, plasma, iv, 2 mg/kg, single 2 mg/kg IV bolus, three compartment model, read-out: Vss (volume of distribution at steady state)
endpoint: Vd (L/kg)
The reply should contain only the number, in L/kg.

Recorded Vd (compound COc1ccc(/C=N/NC(=O)CSc2nc3ccccc3[nH]2)cc1 ): 7.73

----------
protocolSummary: Short-term (bench-top) stability of GMC1 plasma and urine samples
Format: physicochemical, rat
reportedConditions: rat urine, bench-top 2 h; read-out: Mean Recovery ± SD, short-term stability
endpoint: recovery at 2 h (%)
The reply should contain only the number, in %.

Recorded recovery at 2 h (molecule COc1ccc(/C=N/NC(=O)CSc2nc3ccccc3[nH]2)cc1 ): 94.2

----------
protocolSummary: Short-term (bench-top) stability of GMC1 plasma and urine samples
Type: physicochemical, rat
reportedConditions: rat urine, bench-top 4 h; read-out: Mean Recovery ± SD, short-term stability
endpoint: recovery at 4 h (%)
The reply should contain only the number, in %.

Recorded recovery at 4 h (compound COc1ccc(/C=N/NC(=O)CSc2nc3ccccc3[nH]2)cc1 ): 93.9

----------
protocolSummary: Pharmacokinetic study of the GMC1 co-solvent formulation, IV bolus
Format: in vivo, male Sprague Dawley rats
reportedConditions: male, Sprague Dawley, rat, plasma, iv, 2 mg/kg, single 2 mg/kg IV bolus, three compartment model, read-out: V1 (volume of distribution of central compartment)
endpoint: Vd (L/kg)
The reply should contain only the number, in L/kg.

Recorded Vd (compound COc1ccc(/C=N/NC(=O)CSc2nc3ccccc3[nH]2)cc1 [GMC1] ): 0.278

----------
protocolSummary: Solubility of GMC1 in selected solvents by the shaker method
Type: physicochemical
reportedConditions: soybean oil, oil or lipid, thermodynamic from solid, Soy bean oil, room temperature, read-out: Mean Solubility ± SD
endpoint: solubility at 72 h (µg/mL)
The reply should contain only the number, in µg/mL.

Recorded solubility at 72 h (compound COc1ccc(/C=N/NC(=O)CSc2nc3ccccc3[nH]2)cc1 ): 1100
